Values from ChEMBL document CHEMBL1145498

# TGT: Dual specificity protein kinase CLK3 (Homo sapiens) (UniProt P49761)
# Sequence (P49761 whole entry, looked up): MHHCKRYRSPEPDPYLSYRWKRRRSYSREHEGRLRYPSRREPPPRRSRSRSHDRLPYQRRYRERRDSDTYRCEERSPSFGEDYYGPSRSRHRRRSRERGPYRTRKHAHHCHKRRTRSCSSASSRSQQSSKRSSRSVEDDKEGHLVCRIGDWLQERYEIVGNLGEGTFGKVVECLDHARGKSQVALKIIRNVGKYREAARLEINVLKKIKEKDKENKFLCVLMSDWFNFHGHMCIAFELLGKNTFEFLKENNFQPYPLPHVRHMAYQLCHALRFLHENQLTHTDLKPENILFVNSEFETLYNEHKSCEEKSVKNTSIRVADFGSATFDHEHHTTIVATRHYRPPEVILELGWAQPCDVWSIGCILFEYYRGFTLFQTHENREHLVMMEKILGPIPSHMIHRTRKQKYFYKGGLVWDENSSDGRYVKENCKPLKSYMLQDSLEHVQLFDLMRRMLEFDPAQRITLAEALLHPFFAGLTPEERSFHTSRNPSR
Provide the recorded ΔTm for the entries that follow.
Give the number; °C is assumed, so skip it.

Please give the measured ΔTm for this compound: O=c1c(O)c(-c2ccc(O)c(O)c2)oc2cc(O)cc(O)c12
5.4

Please give the measured ΔTm for this compound: O=C1Nc2ccc(S(=O)(=O)O)cc2/C1=C1/Nc2ccccc2/C1=N\O
3.5

Please give the measured ΔTm for this compound: O=c1c(-c2ccc(F)cc2)c(-c2ccncc2)[nH]n1-c1ccc(Cl)cc1
0.3

Please give the measured ΔTm for this compound: O=C(Nc1cccc(Nc2nccc(Nc3cccc(C(F)(F)F)c3)n2)c1)C1CC1
0.6

Please give the measured ΔTm for this compound: Nc1cccc(-c2cc3c(Oc4cccc(O)c4)ncnc3[nH]2)c1
0.9
